# protocol details: Inhibition of HCV genotype 1b NS3/NS4A protease using DDIVPCSMSYTW as substrate by radiometric enzymatic assay
# Design: species or system Hepatitis C virus subtype 1b
parameter measured: Ki (µM)
Give bare numbers, in µM.

Q: Query: Ki; subject: `H-DDIVPC-OH`
Ans: 19

---

# protocol details: Inhibition of HCV genotype 1b NS3/NS4A protease using DDIVPCSMSYTW as substrate by radiometric enzymatic assay
# Parameters: species or system Hepatitis C virus subtype 1b
pKi: −log10 of the molar value. Non-standard residues stand in square brackets, D forms with d. Residues, ends and D or L forms follow the SMILES beside them. *: point of attachment. Hyp = O=C(O)[C@@H]1C[C@@H](O)CN1; Nva = CCC[C@H](N)C(=O)O; Bn = c1ccc(C*)cc1
Quick rule: pKi of at least 6 means Condition met, below that means Condition not met.

Examples with answers:
Q: Test whether the molecule CCC[C@H](NC(=O)[C@@H]1C[C@@H](OCc2ccccc2)CN1C(=O)[C@@H](NC(=O)[C@@H](NC(=O)[C@H](CC(=O)O)NC(=O)[C@H](CC(=O)O)NC(C)=O)[C@@H](C)CC)C(C)C)C(=O)O (Ac-DDIV[Hyp](Bn)[Nva]-OH) records pKi of 6 or higher.
Ans: Condition not met

Q: Please answer likewise for `C=C[C@@H]1C[C@]1(NC(=O)[C@@H]1C[C@@H](Oc2ccnc3ccccc23)CN1C(=O)[C@@H](NC(=O)OC(C)(C)C)C(C)(C)C)C(=O)O`
Ans: Condition met

Q: Please answer likewise for `C=C[C@@H]1C[C@]1(NC(=O)[C@@H]1C[C@@H](Oc2cc(-c3ccccc3)nc3cc(OC)ccc23)CN1C(=O)CC(C)(C)C)C(=O)O`
Ans: Condition not met

Q: Please answer likewise for `C=C[C@@H]1C[C@]1(NC(=O)[C@@H]1CCCN1C(=O)[C@@H](NC(=O)OC(C)(C)C)C(C)(C)C)C(=O)O`
Ans: Condition not met

Q: Please answer likewise for `COc1ccc2c(O[C@@H]3C[C@@H](C(=O)NCC(=O)O)N(C(=O)[C@@H](NC(=O)OC(C)(C)C)C(C)(C)C)C3)cc(-c3ccccc3)nc2c1`
Ans: Condition not met

New cases:
Q: Test whether the molecule `C=C[C@@H]1C[C@]1(NC(=O)[C@@H]1C[C@@H](Oc2cccc3ccccc23)CN1C(=O)[C@@H](NC(=O)OC(C)(C)C)C(C)(C)C)C(=O)O` records pKi of 6 or higher.
Ans: Condition met

Q: Please answer likewise for `C=C[C@@H]1C[C@]1(NC(=O)[C@@H]1C[C@@H](Oc2ccncc2)CN1C(=O)[C@@H](NC(=O)OC(C)(C)C)C(C)(C)C)C(=O)O`
Ans: Condition not met

Data origin: ChEMBL document CHEMBL3120047
